Listed below: S/N vs BSA values for each entry.
- TARGET: T1, hVEGF-A (8-109) (human, UniProt P15692 214-315)
- T1 sequence (looked up): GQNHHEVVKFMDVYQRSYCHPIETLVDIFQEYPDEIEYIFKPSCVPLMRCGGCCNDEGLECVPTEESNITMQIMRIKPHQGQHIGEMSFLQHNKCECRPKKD
- MEASUREMENT_NOTES: spot phage ELISA
Answer with a number only.

Solved entries:
BINDER | S/N vs BSA
GCKKWQWWYMCKQDSDCLAGCVCYPWTECG (designed binder) [VEGF_CKP4] | 35.3
GCETDWYPHQIDCKQDSDCLAGCVCGPNGFCG (designed binder) [VEGF_CKP1] | 16.9
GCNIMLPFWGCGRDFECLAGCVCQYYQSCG (designed binder) [VEGF_CKP9.54.90] | 29.5

Q. Would you kindly share the measured S/N vs BSA for GCQLMQPFWGCKQDSDCLAGCVCRWYHSCG (designed binder) [VEGF_CKP9.L5.43] ?
A. 13.6
